- TEST TARGET: mouse Siglec-2-Fc-Avi (CD22) (Mus musculus)
- Sequence (P35329 22-708 limits assumed): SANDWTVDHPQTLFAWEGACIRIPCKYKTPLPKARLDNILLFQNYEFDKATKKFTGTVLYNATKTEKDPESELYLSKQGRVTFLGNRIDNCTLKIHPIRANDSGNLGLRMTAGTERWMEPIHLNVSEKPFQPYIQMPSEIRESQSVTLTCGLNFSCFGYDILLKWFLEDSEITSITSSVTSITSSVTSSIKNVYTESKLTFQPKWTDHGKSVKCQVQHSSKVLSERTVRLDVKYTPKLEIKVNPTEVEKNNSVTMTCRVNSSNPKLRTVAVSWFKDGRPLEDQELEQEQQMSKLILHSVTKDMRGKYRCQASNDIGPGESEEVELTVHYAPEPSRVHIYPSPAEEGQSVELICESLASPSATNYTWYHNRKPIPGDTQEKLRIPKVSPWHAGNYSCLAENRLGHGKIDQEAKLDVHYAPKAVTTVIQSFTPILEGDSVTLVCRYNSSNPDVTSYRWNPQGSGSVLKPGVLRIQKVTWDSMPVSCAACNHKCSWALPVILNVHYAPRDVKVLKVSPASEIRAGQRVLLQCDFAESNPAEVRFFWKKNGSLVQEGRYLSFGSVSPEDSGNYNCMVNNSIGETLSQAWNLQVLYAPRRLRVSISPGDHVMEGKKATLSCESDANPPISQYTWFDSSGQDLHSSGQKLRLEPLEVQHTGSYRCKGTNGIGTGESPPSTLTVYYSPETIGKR
PROPERTY LABEL: Kd

CHEMICAL STRING	PROPERTY LABEL	RESULT
O=C(Cc1ccc(-c2ccc(O)cc2)cc1)NC[C@@H](O)[C@@H](O)[C@@H]1O[C@](C(=O)O)(n2cc(-c3ccccc3O)nn2)C[C@H](O)[C@H]1NC(=O)CO	Kd	> 10 µM
C#CCOCCOCCNc1c(NCCCCCCO[C@]2(C(=O)O)C[C@H](O)[C@@H](NC(=O)CO)[C@H]([C@H](O)[C@H](O)CNC(=O)c3ccc(C(F)F)cc3)O2)c(=O)c1=O	Kd	1 to 10 µM
C#CCCOc1ccc(CO[C@]2(C(=O)O)C[C@H](O)[C@@H](NC(=O)CO)[C@H]([C@H](O)[C@H](O)CNC(=O)Cc3ccc(NC(C)=O)cc3)O2)cc1	Kd	1 to 10 µM
CC(=O)NCCOCCOCCOCCOCc1cn(CCCCCCCCO[C@]2(C(=O)O)C[C@H](O)[C@@H](NC(=O)CO)[C@H]([C@H](O)[C@H](O)CNC(=O)Cc3ccc(C(F)F)cc3)O2)nn1	Kd	< 1 µM
C#CCOCCOCCNc1c(NCCCCCCO[C@]2(C(=O)O)C[C@H](O)[C@@H](NC(=O)CO)[C@H]([C@H](O)[C@H](O)CNC(=O)c3ccccc3Cl)O2)c(=O)c1=O	Kd	1 to 10 µM

* * *

This section presents compounds with their documented Kd values.
- TEST TARGET: human Siglec-2/CD22 protein (Homo sapiens, UniProt P20273)
- Construct: purchased Acro Biosystems SI2-H82E3
- Sequence (P20273 20-847): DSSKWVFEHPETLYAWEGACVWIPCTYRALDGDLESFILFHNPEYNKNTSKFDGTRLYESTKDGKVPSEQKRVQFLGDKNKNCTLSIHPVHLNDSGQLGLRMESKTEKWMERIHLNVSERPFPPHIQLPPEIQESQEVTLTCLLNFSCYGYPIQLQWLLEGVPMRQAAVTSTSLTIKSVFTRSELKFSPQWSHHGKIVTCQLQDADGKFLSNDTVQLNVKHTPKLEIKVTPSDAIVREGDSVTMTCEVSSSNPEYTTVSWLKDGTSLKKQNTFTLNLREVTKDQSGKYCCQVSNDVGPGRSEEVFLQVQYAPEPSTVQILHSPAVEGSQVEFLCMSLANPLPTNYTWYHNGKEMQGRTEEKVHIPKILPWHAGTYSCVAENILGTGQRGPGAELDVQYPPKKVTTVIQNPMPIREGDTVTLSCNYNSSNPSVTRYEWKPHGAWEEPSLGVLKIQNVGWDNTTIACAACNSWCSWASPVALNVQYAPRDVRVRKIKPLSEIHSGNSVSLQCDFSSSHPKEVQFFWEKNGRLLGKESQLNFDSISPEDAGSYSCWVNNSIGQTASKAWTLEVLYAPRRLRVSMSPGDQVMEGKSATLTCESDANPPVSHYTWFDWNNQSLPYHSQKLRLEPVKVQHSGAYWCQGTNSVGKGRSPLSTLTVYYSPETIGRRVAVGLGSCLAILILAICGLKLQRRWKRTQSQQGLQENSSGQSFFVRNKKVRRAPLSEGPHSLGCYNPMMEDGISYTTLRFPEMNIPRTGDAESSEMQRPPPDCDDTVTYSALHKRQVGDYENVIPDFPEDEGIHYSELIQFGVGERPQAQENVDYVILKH
- PROCEDURE SUMMARY: SPR binding affinity to human CD22
- EXPERIMENTAL PARAMETERS: steady-state analysis
- Method: Prior to immobilization, CD22 proteins were treated with SialoExo (Genovis, Cat #G1-SM1-020) for 4 hours at 37° C. to remove native sialic acid residues. […] Binding experiments of Siglec-ligand conjugated proteins or Siglec ligand compounds were performed on the surfaces prepared above in 10 mM HEPES, 150 mM NaCl, 0.05% Tween-20, pH 7.5, 1% DMSO as the running buffer. […] Data was analyzed using steady-state analysis in Biacore Insight Evaluation Software, version 3.0 for Siglec ligand compounds.
PROPERTY LABEL: Kd

CHEMICAL STRING	TEST TARGET	PROPERTY LABEL	RESULT
C#CCCOc1ccc(CO[C@]2(C(=O)O)C[C@H](O)[C@@H](NC(=O)CO)[C@H]([C@H](O)[C@H](O)CNC(=O)Cc3ccc(NC(C)=O)cc3)O2)cc1	human Siglec-2/CD22 protein (Homo sapiens, UniProt P20273)	Kd	1000 to 10000 nM
C#CCOCCOCCNc1c(NCCCCCCO[C@]2(C(=O)O)C[C@H](O)[C@@H](NC(=O)CO)[C@H]([C@H](O)[C@H](O)CNC(=O)c3cccc(Oc4ccccc4)c3)O2)c(=O)c1=O	human Siglec-2/CD22 protein (Homo sapiens, UniProt P20273)	Kd	< 1000 nM
C#CCOCCOCCO[C@]1(C(=O)O)C[C@H](O)[C@@H](NC(=O)CNC(C)=O)[C@H]([C@H](O)[C@H](O)CNC(=O)Cc2ccc(-c3ccc(O)cc3)cc2)O1	human Siglec-2/CD22 protein (Homo sapiens, UniProt P20273)	Kd	1000 to 10000 nM
C#CCNc1c(NCCCCCCO[C@]2(C(=O)O)C[C@H](O)[C@@H](NC(=O)CO)[C@H]([C@H](O)[C@H](O)CNC(=O)Cc3ccc(C(F)F)cc3)O2)c(=O)c1=O	human Siglec-2/CD22 protein (Homo sapiens, UniProt P20273)	Kd	< 1000 nM
CC(=O)NCCOCCOCCOCCOCCC(=O)NCCOCCOCCO[C@]1(C(=O)O)C[C@H](O)[C@@H](NC(=O)CO)[C@H]([C@H](O)[C@H](O)CNC(=O)Cc2ccc(-c3ccccc3)cc2)O1	human Siglec-2/CD22 protein (Homo sapiens, UniProt P20273)	Kd	1000 to 10000 nM
